Data origin: patent US20150291692A1

# TARGET_OR_TEST_SYSTEM: T1, KIR3DL2 recombinant protein (R&D Systems) (human, UniProt P43630 28-340)
# T1 construct: Bought protein; also called rec KIR3DL2; recombinant KIR3DL2-Fc fusion protein; not shown: Fc part of the bought fusion protein; not described
# T1 sequence (P43630 28-340 A108T): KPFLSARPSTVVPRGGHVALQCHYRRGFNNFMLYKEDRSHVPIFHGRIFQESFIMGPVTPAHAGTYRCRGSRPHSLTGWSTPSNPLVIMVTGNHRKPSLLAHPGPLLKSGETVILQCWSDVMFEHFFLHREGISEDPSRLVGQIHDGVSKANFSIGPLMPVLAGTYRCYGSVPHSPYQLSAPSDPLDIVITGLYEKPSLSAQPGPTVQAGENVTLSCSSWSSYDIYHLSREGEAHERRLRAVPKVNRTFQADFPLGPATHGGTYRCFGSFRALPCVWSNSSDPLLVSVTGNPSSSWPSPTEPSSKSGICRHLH
# ASSAY_DETAILS: regular kinetic method
VALUE_TYPE: koff

[ask] Look up koff for this binder: chimeric 15C11 of human IgG1 Fc isotype (antibody, V domains shown, Human-mouse chimeric antibody with the variable regions of murine 15C11; also called chim15C11; Chim15C11) VH: EVKLEESGGGLVQPGGSMKLSCAASGFTFSDAWMDWVRQSPEKGLEWVAEIRSKANNHATYYAESVKGRFTISRDDSKSSVYLRMNSLRAEDTGIYYCTGGYYPVYWGQGTLVTVSA VL: DIQMTQSPSSLSASLGGKVTITCKASQDINKNIAWYQHKPGKGPRLLIHYTSTLQPGFPSRFSGSGSGRDYSFSISNLEPEDLATYYCLQYDNLLTFGGGTKLEIK
[reply] 0.00029 s⁻¹

[ask] Look up koff for this binder: Hum13-K32-15C11 (antibody, V domains shown, also called H1/L3) VH: EVQLVESGGGLVQPGGSLRLSCAASGFTFSDAWMDWVRQAPGKGLEWVGRIRSKANNHATAYAASVKGRFTISRDDSKNSLYLQMNSLKTEDTAVYYCTGGYYPVYWGQGTLVTVSS VL: DIQMTQSPSSLSASVGDRVTITCKASQDINKNIAWYQHKPGKAPKLLIHYTSTLQPGVPSRFSGSGSGRDYTFTISSLQPEDIATYYCLQYDNLLTFGGGTKVEIK
[reply] 0.00105 s⁻¹

[ask] Look up koff for this binder: Hum23-K32-15C11 (antibody, V domains shown, also called H2/L3) VH: EVQLVESGGGLVQPGGSLRLSCAASGFTFSDAWMDWVRQAPGKGLEWVGEIRSKANNHATYYAASVKGRFTISRDDSKNSLYLQMNSLKTEDTAVYYCTGGYYPVYWGQGTLVTVSS VL: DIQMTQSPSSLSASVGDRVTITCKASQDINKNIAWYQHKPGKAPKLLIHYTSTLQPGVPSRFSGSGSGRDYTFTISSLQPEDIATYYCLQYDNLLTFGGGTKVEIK
[reply] 0.000329 s⁻¹

[ask] Look up koff for this binder: Hum33-K32-15C11 (antibody, V domains shown, also called H3/L3; H3-L3) VH: EVQLVESGGGLVQPGGSLRLSCAASGFTFSDAWMDWVRQAPGKGLEWVAEIRSKANNHATYYAASVKGRFTISRDDSKNSVYLQMNSLKTEDTAVYYCTGGYYPVYWGQGTLVTVSS VL: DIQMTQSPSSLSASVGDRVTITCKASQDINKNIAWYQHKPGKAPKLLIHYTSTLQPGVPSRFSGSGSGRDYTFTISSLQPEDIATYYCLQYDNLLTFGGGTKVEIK
[reply] 0.00018 s⁻¹
